Let's look at some compounds and their measured activity change.
- Test Method Notes: growth inhibition of wild-type GFP E. coli, dose response, h38 mutant RFP, cherry-pick (AID 977622)
- Test Parameters: 24 h; E. coli mixed culture, total growth OD600 at 50 uM, at 50 µM
Among all 1,900 compounds or so, fewer than 10 were called active. Roughly 39% stayed inconclusive and do not appear here. Not all results are given here.
Provide only the numeric value, understood in %.

| Compound | Recorded Result |
| --- | --- |
| CC(C)=C(c1ccc(Cl)cc1)c1c(N)ncnc1N | -10.9 |
| O=S1(=O)N[C@H](Cc2ccccc2)COc2cc(N3CCSCC3)ccc21 | -14.3 |
| Cc1ccccc1CSCC(=O)Nc1ccccc1F | 0.464 |

Fill in activity change for record `COc1cccc(NC(=O)N(C)C[C@H]2Oc3ncc(C#Cc4cccnc4)cc3C(=O)N([C@H](C)CO)C[C@H]2C)c1`
-8.41

For the compound CC(CCc1ccccc1)NC(=O)CCC1CCCC1 (configuration not stated) , report activity change.
-8.51

Return reported activity change. Input compound: `CN(C)CCCN(C(=O)CCOc1ccccc1)c1nc2c(F)cccc2s1`
-10.6

Identify activity change associated with the compound `O=C(c1ccccc1)N(c1ccccc1)c1nccc2ccccc12`
-7.9

Indicate its recorded activity change; the compound in question is `CC[n+]1c(C)cc2c(sc3ccccc32)c1C`
-0.26

Given `Cc1noc(C)c1NC(=O)Nc1ccc2c(c1)C(=O)N([C@H](C)CO)C[C@@H](C)[C@@H](CN(C)C(=O)Nc1ccc3c(c1)OCO3)OCCCC[C@@H](C)O2` , respond with its activity change.
-6.3

Supply activity change value. Item: `O=C(Nc1c(S(=O)(=O)c2ccc(Cl)cc2)csc1Br)c1ccccc1Cl`
9.68

Please give the documented activity change of `Cc1ccc(Cc2c(-c3ccc(C#N)cc3)nc3ccc(Br)cn23)cc1`
2.82

Answer with reported activity change of `CC(=O)Nc1cccc(OCCCOc2cccc([N+](=O)[O-])c2)c1`
-16.8

* * *

- Test Method Notes: growth inhibition of wild-type GFP E. coli, dose response, h38 mutant RFP, cherry-pick (AID 977622)
- Test Parameters: 24 h; E. coli mixed culture, total growth OD600 at 50 uM, at 50 µM
The whole screen tested about 1,900 compounds, of which fewer than 10 were called active. About 39% were inconclusive and are not listed. The list is a sample of the results.
Measured Metric: activity change (%)
Field format: number, assumed %, no unit text.

Record excerpt, results attached:
| Compound | activity change / % |
| --- | --- |
| CC(=O)c1cccc(NC(=O)C2CCCN(S(C)(=O)=O)C2)c1 (centres undefined) | 4.2 |
| Cc1ccc(NS(=O)(=O)c2ccc3c(c2)CCC(=O)N3)cc1C | -8.95 |

Give reported activity change value for `Cc1ccc2nc(N(CCN(C)C)C(=O)C3CCN(S(=O)(=O)c4cccs4)CC3)sc2c1`
-21.5

Fill in reported activity change for this entry: `O=C(NCc1ccccc1)c1ccc(-c2cn[nH]c2)c2ccoc12`
-21.8

State its activity change for this compound: `C=C1c2cc3c(cc2NC(=S)N1Cc1ccccc1)OCO3`
-19.2

Fill in activity change for record `Nc1ccc(C(=O)OCCCc2nc3cc4ccccc4cc3[nH]2)cc1`
3.79

Entry `Nc1[nH]c(C(=O)c2ccccc2)c(-c2ccc3c(c2)OCO3)c1C(=O)NCCc1c[nH]c2ccccc12` needs its activity change filled in; supply it.
-18.1

Supply measured activity change of `O=C1CCCc2ccccc2N1Cc1ccccc1` in your reply.
-14.6

Indicate its recorded activity change; the compound in question is `Cc1ccccc1NC(=O)c1ccccc1N(C)S(=O)(=O)c1ccccc1`
-14.8
